- System: E. coli CVM 40131 (ctx-m-2)
- Type: cell-based, Escherichia coli
- From the text: The same MIC assay as in Example 6 was used to determine the antimicrobial susceptibility of Compound A, L-form (FIG. 15), and several variants. One variant was Compound A, D-form, with D-Lysine at position 7. Compound B is a variant in the fatty acid chain, with a fatty acid chain composition of C15H29O, and having D-Lys at position 7. Compound C is a variant in the fatty acid chain with a fatty acid chain composition of C11H21O, and having D-Lys at position 7. […]
Where a SMILES comes first, the peptide text is derived from it. Bridges are numbered along the chain shown (N, C = ends). [ ]: non-standard residue; d: D form. The star is where a group is joined. Pentadecanoyl = CCCCCCCCCCCCCCC(=O)*; Tridecanoyl = CCCCCCCCCCCCC(=O)*; Undecanoyl = CCCCCCCCCCC(=O)*; dOrn = NCCC[C@@H](N)C(=O)O
Readout: MIC

- Compound: "CCCCCCCCCCC(=O)N[C@H](CCCN)C(=O)N[C@H](C(=O)N[C@@H]1C(=O)N[C@H](CCCN)C(=O)N[C@@H](CO)C(=O)N[C@@H](Cc2ccc(O)cc2)C(=O)N[C@H](CCCCN)C(=O)N[C@H](CO)C(=O)N[C@@H]([C@@H](C)CC)C(=O)N2CCC[C@H]2C(=O)N[C@@H]([C@@H](C)CC)C(=O)N2CCC[C@H]2C(=O)N[C@@H]([C@@H](C)CC)C(=O)O[C@@H]1C)C(C)C [Compound C] (Undecanoyl-[dOrn]VT[dOrn]SY[dK][dS]IPIPI; ester 3-C; N-terminus assumed)"
  Test System: "E. coli CVM 40131 (ctx-m-2)"
  Experimental Result: "8 µg/mL"
- Compound: "CCCCCCCCCCCCC(=O)N[C@H](CCCN)C(=O)N[C@H](C(=O)N[C@@H]1C(=O)N[C@H](CCCN)C(=O)N[C@@H](CO)C(=O)N[C@@H](Cc2ccc(O)cc2)C(=O)N[C@@H](CCCCN)C(=O)N[C@H](CO)C(=O)N[C@@H]([C@@H](C)CC)C(=O)N2CCC[C@H]2C(=O)N[C@@H]([C@@H](C)CC)C(=O)N2CCC[C@H]2C(=O)N[C@@H]([C@@H](C)CC)C(=O)O[C@@H]1C)C(C)C [Compound A L-form] (Tridecanoyl-[dOrn]VT[dOrn]SYK[dS]IPIPI; ester 3-C)"
  Test System: "E. coli CVM 40131 (ctx-m-2)"
  Experimental Result: "4 µg/mL"
- Compound: "CCCCCCCCCCCCCCC(=O)N[C@H](CCCN)C(=O)N[C@H](C(=O)N[C@@H]1C(=O)N[C@H](CCCN)C(=O)N[C@@H](CO)C(=O)N[C@@H](Cc2ccc(O)cc2)C(=O)N[C@H](CCCCN)C(=O)N[C@H](CO)C(=O)N[C@@H]([C@@H](C)CC)C(=O)N2CCC[C@H]2C(=O)N[C@@H]([C@@H](C)CC)C(=O)N2CCC[C@H]2C(=O)N[C@@H]([C@@H](C)CC)C(=O)O[C@@H]1C)C(C)C [Compound B] (Pentadecanoyl-[dOrn]VT[dOrn]SY[dK][dS]IPIPI; ester 3-C; N-terminus assumed)"
  Test System: "E. coli CVM 40131 (ctx-m-2)"
  Experimental Result: "8 µg/mL"
- Compound: "CCCCCCCCCCCCC(=O)N[C@H](CCCN)C(=O)N[C@H](C(=O)N[C@@H]1C(=O)N[C@H](CCCN)C(=O)N[C@@H](CO)C(=O)N[C@@H](Cc2ccccc2)C(=O)N[C@H](CCCCN)C(=O)N[C@H](CO)C(=O)N[C@@H]([C@@H](C)CC)C(=O)N2CCC[C@H]2C(=O)N[C@@H]([C@@H](C)CC)C(=O)N2CCC[C@H]2C(=O)N[C@@H]([C@@H](C)CC)C(=O)O[C@@H]1C)C(C)C [Variant D] (Tridecanoyl-[dOrn]VT[dOrn]SF[dK][dS]IPIPI; ester 3-C; N-terminus assumed)"
  Test System: "E. coli CVM 40131 (ctx-m-2)"
  Experimental Result: "8 µg/mL"
- Compound: "CCCCCCCCCCCCC(=O)N[C@H](CCCN)C(=O)N[C@H](C(=O)N[C@@H]1C(=O)N[C@H](CCCN)C(=O)N[C@@H](CO)C(=O)N[C@@H](Cc2ccc(O)cc2)C(=O)N[C@H](CCCCN)C(=O)N[C@H](CO)C(=O)N[C@@H]([C@@H](C)CC)C(=O)N2CCC[C@H]2C(=O)N[C@@H]([C@@H](C)CC)C(=O)N2CCC[C@H]2C(=O)N[C@@H]([C@@H](C)CC)C(=O)O[C@@H]1C)C(C)C [Compound A D-form] (Tridecanoyl-[dOrn]VT[dOrn]SY[dK][dS]IPIPI; ester 3-C)"
  Test System: "E. coli CVM 40131 (ctx-m-2)"
  Experimental Result: "8 µg/mL"
